I'd appreciate it if you could supply Activity values for the items below.
test system: THP-1; test: Antiinflammatory activity in LPS-stimulated human THP1 cells assessed as inhibition of IL6 formation at 1 uM pretreated 30 mins before LPS challenge measured after 24 hrs by ELISA; type: functional; design: scale not given: the % may be the effect or the level left
Answer format: numeric, % implied, no suffix.

Give recorded Activity. COc1cc(OC)c(C(=O)c2ccccc2Br)c(O)c1CN1CCOCC1 19

Give recorded Activity. COc1cc(OC)c(C(=O)c2cccc(F)c2)c(O)c1CN1CCN(C)CC1 47

Give recorded Activity. COc1cc(O)c(C(=O)c2cccc(F)c2)c(OC)c1 38

Origin of the recorded values: ChEMBL document CHEMBL1156322
